Biological target: human CXCR4 receptor (Homo sapiens)
Construct: expressed in transfected cells
Sequence (P61073 whole entry): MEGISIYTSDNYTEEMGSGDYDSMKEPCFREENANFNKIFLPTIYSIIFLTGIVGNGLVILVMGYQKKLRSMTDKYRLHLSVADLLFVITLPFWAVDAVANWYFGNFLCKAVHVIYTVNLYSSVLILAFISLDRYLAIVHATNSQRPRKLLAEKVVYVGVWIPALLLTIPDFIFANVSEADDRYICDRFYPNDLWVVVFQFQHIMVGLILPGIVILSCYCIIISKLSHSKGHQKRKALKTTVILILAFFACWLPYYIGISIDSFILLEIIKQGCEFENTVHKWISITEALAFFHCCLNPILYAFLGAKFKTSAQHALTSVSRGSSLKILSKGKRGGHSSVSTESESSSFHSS
Test: Measurement of intracellular Ca+2 responses (FLIPR), antagonism of the SDF-1α response
Assay type: cell-based
Settings: HEK-Gqi5 cells stably expressing human CXCR4; Fluo-4 FLIPR; antagonism of SDF-1α 1.9 nM (EC65); values given in μM
Label YES when IC50 is strictly below 2 µM; at or above that, label NO.

INSERT INTO measurements (compound, tgt, class_label) VALUES
  ('CCN(CC)CCCNc1nc(NC2CCN(Cc3ccccc3-n3cccc3)CC2)c2ccccc2n1', 'human CXCR4 receptor (Homo sapiens)', 'YES'),
  ('COc1cccc(N(C)C)c1CN1CCC(Nc2nc(NCC[C@@H]3CCCN3C(=O)OC(C)(C)C)nc3ccccc23)CC1', 'human CXCR4 receptor (Homo sapiens)', 'NO'),
  ('COc1cccc(N(C)C)c1CN1CCC(Nc2nc(NCCC#N)nc3ccccc23)CC1', 'human CXCR4 receptor (Homo sapiens)', 'YES'),
  ('COc1cccc(N(C)C)c1CN1CCC(Nc2nc(NCC3CCN(C(=O)OC(C)(C)C)C3)nc3ccccc23)CC1 (stereo not shown)', 'human CXCR4 receptor (Homo sapiens)', 'NO'),
  ('COc1cccc(N(C)C)c1CN1CCC(Nc2nc(NCC[C@H]3CCCN3C(=O)OC(C)(C)C)nc3ccccc23)CC1', 'human CXCR4 receptor (Homo sapiens)', 'NO');

Please check: IC50 for COc1cccc(N(C)C)c1CN1CCC(Nc2nc(N3CCC3)nc3ccccc23)CC1 , strictly under 2 µM or not? YES

Please let me know if CCN(CC)CCCNc1nc(NC2CCN(Cc3ccccc3[N+](=O)[O-])CC2)c2cc(OC)c(OC)cc2n1 shows IC50 below 2 µM. NO
